Reference for the values: patent US9549932B2

target: full-length human ATR protein (Homo sapiens (Human)); test: Binding assay ATR (TR-FRET tracer displacement); settings: tracer B, TR-FRET; read-out: ATR binding (tracer B) IC50
Sequence (Q13535 other isoform, or with tags, fused parts or gaps): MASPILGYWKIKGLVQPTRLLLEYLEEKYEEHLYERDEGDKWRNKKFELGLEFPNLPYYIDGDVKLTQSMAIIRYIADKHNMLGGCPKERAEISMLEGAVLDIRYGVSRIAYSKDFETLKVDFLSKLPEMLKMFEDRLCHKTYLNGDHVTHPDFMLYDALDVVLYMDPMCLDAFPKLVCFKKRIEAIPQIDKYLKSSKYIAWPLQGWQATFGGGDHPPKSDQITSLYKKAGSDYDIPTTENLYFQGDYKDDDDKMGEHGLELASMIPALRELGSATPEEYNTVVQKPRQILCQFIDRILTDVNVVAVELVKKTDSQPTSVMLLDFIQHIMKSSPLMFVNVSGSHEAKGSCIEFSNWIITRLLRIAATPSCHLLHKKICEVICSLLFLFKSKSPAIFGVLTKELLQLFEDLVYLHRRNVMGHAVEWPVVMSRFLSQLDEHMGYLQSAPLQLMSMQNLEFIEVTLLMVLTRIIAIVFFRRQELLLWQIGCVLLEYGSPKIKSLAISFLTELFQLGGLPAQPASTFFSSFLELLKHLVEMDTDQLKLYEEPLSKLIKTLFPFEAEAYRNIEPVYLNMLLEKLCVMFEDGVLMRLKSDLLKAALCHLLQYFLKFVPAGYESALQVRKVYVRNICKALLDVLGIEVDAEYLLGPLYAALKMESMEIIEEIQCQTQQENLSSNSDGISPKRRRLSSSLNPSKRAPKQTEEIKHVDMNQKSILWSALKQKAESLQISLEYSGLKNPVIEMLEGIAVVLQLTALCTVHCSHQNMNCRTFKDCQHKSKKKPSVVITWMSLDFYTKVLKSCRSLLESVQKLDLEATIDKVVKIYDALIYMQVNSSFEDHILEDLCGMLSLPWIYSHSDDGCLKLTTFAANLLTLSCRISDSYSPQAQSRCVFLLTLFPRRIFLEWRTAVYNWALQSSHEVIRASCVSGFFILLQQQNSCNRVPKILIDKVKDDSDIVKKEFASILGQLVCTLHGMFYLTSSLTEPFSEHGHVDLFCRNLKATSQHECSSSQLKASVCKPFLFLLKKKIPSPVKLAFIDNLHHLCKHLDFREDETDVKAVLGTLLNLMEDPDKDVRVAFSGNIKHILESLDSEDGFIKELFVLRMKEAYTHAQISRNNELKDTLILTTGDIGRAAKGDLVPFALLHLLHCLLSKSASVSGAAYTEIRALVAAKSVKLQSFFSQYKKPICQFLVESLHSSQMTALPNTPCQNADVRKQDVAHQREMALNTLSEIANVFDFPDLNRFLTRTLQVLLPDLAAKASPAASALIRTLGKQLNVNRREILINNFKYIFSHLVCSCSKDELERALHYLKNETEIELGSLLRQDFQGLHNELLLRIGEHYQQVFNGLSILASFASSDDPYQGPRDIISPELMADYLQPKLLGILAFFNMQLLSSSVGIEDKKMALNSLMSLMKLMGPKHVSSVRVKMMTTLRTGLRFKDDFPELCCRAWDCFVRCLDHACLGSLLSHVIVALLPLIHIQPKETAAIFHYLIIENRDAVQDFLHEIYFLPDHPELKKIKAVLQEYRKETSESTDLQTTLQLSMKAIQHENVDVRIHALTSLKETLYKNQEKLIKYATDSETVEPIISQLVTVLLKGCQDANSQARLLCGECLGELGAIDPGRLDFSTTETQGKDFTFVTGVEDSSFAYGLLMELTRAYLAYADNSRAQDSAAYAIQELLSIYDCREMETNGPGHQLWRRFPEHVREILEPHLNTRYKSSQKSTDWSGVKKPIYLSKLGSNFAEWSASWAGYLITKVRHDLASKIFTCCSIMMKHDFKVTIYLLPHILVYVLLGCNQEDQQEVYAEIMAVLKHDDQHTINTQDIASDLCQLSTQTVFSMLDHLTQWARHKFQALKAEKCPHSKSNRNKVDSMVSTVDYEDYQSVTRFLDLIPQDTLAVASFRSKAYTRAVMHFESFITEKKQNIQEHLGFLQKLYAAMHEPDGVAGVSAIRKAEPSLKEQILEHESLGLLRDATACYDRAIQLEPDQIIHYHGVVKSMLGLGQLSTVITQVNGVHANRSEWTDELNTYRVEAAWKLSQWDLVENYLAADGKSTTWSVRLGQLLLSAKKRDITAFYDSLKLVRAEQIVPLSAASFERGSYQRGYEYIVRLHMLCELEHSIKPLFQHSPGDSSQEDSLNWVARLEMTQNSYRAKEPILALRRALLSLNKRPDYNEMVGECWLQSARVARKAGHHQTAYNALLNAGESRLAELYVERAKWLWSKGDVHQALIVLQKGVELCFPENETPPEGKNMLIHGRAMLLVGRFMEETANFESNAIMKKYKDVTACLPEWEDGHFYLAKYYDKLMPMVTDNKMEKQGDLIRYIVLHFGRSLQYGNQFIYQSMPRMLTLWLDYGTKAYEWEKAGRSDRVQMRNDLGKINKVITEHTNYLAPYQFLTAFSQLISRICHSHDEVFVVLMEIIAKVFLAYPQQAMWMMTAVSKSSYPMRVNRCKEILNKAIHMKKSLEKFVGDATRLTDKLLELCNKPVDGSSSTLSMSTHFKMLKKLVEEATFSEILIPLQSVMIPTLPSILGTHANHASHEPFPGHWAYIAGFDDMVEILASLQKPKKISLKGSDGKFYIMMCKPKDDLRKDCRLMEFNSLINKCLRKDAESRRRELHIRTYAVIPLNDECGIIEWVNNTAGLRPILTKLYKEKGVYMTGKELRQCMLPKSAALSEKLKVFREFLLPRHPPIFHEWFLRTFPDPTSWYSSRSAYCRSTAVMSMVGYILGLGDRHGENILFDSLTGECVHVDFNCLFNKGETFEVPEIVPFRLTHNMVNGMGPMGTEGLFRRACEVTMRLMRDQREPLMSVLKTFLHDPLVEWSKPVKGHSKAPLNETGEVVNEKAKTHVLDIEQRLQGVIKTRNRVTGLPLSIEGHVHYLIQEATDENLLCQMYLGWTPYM
Sequence (Q8WXE1 other isoform, or with tags, fused parts or gaps partner): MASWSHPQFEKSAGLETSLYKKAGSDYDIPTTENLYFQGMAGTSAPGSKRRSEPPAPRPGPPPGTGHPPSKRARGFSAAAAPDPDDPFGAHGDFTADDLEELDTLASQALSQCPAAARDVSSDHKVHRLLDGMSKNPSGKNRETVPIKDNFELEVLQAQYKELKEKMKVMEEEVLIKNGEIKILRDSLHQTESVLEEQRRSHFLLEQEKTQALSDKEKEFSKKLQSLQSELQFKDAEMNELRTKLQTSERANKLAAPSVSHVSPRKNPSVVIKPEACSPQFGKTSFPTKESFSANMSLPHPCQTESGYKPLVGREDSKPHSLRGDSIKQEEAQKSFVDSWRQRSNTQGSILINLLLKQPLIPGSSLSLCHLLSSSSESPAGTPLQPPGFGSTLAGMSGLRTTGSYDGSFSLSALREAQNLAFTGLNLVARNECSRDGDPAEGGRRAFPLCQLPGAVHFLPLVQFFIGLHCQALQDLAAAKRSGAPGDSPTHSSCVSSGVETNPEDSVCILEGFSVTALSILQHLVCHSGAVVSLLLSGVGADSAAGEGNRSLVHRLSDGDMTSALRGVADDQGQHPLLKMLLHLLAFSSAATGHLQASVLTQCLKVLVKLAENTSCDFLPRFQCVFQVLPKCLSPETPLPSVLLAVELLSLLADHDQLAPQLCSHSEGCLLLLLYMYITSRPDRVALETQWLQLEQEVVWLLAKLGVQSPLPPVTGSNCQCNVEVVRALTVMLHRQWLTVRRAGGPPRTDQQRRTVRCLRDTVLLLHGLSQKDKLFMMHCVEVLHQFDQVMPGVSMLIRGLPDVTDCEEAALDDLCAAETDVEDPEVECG
pIC50: −log10 of the molar value. Counter-ions that a name gives are not always drawn.
Items are presented alongside their recorded pIC50.
Assay readout: pIC50

1) CN=S(C)(=O)c1ccc(-c2cc(N3CCOCC3)nc3c(-c4ccn[nH]4)nccc23)cc1 (centres unmarked) [Example 5] : 7.47
2) CS(=O)(=O)Cc1cc(N2CCOCC2)nc2c(-c3ccn[nH]3)nccc12 [Example 37] : 6.90
3) CS(C)(=O)=Nc1cc(N2CCOCC2)nc2c(-c3ccn[nH]3)nccc12 [Example 65] : 6.56
4) CS(=O)(=O)C1(c2cc(N3CCOCC3)nc3c(-c4ccn[nH]4)nccc23)CC1 [Example 39] : 7.45
5) c1cc2c(C3CC3)cc(N3CCOCC3)nc2c(-c2cc[nH]n2)n1 [Example 18] : 7.12
6) CCS(=N)(=O)c1ccc(-c2cc(N3CCOCC3)nc3c(-c4ccn[nH]4)nccc23)cc1 (centres unmarked) [Example 12] : 7.33
7) CS(=N)(=O)c1cccc(-c2cc(N3CCOCC3)nc3c(-c4ccn[nH]4)nccc23)c1 (centres unmarked) [Example 19] : 6.74
8) C[C@@H]1COCCN1c1cc(C#N)c2ccnc(-c3ccn[nH]3)c2n1 [Example 35] : 7.12
9) CS(=O)(=O)c1ccc(-c2cc(N3CCOCC3)nc3c(-c4cc[nH]n4)nccc23)cc1 [Example 7] : 7.58
10) CS(=O)(=O)c1ccccc1-c1cc(N2CCOCC2)nc2c(-c3cc[nH]n3)nccc12 [Example 8, hydrochloride] : 7.16
11) C[C@@H]1COCCN1c1cc(-c2cccc(S(C)(=O)=O)c2)c2ccnc(-c3cc[nH]n3)c2n1 [Example 28] : 8.08
12) C[C@@H]1COCCN1c1cc(OCCCCNC(=O)OC(C)(C)C)c2ccnc(-c3ccn[nH]3)c2n1 [Example 52] : 7.10
13) c1ccc(COc2cc(N3CCOCC3)nc3c(-c4cc[nH]n4)nccc23)cc1 [Example 50] : 6.29
14) c1cc2ccc(N3CCOCC3)nc2c(-c2cc[nH]n2)n1 [Example 61, hydrochloride] : 6.30
15) C[C@@H]1COCCN1c1cc(C2CC2)c2ccnc(-c3cc[nH]n3)c2n1 [Example 29] : 8.03
16) CC(C)Oc1cc(N2CCOCC2)nc2c(-c3cc[nH]n3)nccc12 [Example 40] : 7.00
17) Clc1cc(N2CCOCC2)nc2c(-c3cc[nH]n3)nccc12 [Example 62] : 6.15
18) C=C(C)c1cc(N2CCOCC2)nc2c(-c3cc[nH]n3)nccc12 [Example 10] : 7.36
19) CN1CC=C(c2cc(N3CCOCC3)nc3c(-c4ccn[nH]4)nccc23)CC1 [Example 14] : 7.10
20) C[C@@H]1COCCN1c1cc(-c2ccc(S(C)(=N)=O)cc2)c2ccnc(-c3ccn[nH]3)c2n1 (some centres unmarked) [Example 30] : 8.02
21) OCc1cc(N2CCOCC2)nc2c(-c3ccn[nH]3)nccc12 [Example 38] : 6.39
22) C[C@@H]1COCCN1c1cc(-c2cccc(S(C)(=N)=O)c2)c2ccnc(-c3ccn[nH]3)c2n1 (some centres unmarked) [Example 31] : 7.35
23) Cc1cc(N2CCOCC2)nc2c(-c3cc[nH]n3)nccc12 [Example 20, hydrochloride] : 6.49
24) COc1cc(N2CCOC[C@H]2C)nc2c(-c3cc[nH]n3)nccc12 [Example 53] : 7.20
25) C[C@@H]1COCCN1c1cc(-c2ccc(S(C)(=O)=O)cc2)c2ccnc(-c3cc[nH]n3)c2n1 [Example 26] : 8.20
26) CS(=O)(=O)c1ccc(-c2cc(N3CCOCC3)nc3c(-c4ccn[nH]4)nccc23)c(F)c1 [Example 24] : 7.68
27) c1cc(-c2nccc3c(OCC4CCOCC4)cc(N4CCOCC4)nc23)[nH]n1 [Example 287] : 6.34
28) c1cc2c(C3CCOCC3)cc(N3CCOCC3)nc2c(-c2cc[nH]n2)n1 [Example 60] : 7.80
29) CS(=N)(=O)c1ccc(-c2cc(N3CCOCC3)nc3c(-c4ccn[nH]4)nccc23)cc1 (centres unmarked) [Example 2] : 7.42
